Recorded values, source the RNAGym collection of RNA variant scans (doi:10.1073/pnas.2313332121).

B1: TPR t1 (parent)
chain: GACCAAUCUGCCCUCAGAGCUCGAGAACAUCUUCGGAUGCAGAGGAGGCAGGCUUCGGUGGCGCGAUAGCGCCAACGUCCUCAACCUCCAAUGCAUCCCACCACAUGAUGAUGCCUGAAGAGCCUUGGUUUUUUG

- Variants of: B1
- EXPERIMENTAL_DETAILS: polymerase ribozyme fitness, log enrichment relative to wild type (log ratio); higher = more active; in vitro selection for triplet polymerase activity
MEASURE_NAME: polymerase ribozyme fitness (log ratio)
Just the number.

Would you mind telling me what polymerase ribozyme fitness (log ratio) value was observed for GACCAAUCUGCCCUCAGAGCUCGAGAACAUCUUCGGAUGCAGAGGAGGGAUGCGUCGGUGGCGCGAUAGCGCCAACGUCCUCAACCUCCAAUGCAUCCCACCACAUGAUGAUGCCUGAAGAGCCUUGGUUUUUUG [C49G G51U U54G] ? -2.34

Field request: polymerase ribozyme fitness (log ratio) | item: GACCAAUCUGCCCUCAGAGCUCGAGAGCAUCUUCGGAUGCAGAGGAGGCAGGCUUCGGUGGCGCGAUAGCGCCAACGUCCUCAACCUCCAAUGCAUCCCACCACAUGAUGAAGCCUGAAGAGCCUUGGUUUUUUG [A27G U112A] 1.03

Can you look up the measured polymerase ribozyme fitness (log ratio) of GCCCAAUCUGCUCUCAGAGCUCGAGAACAUCUUCGGAUGCAUAGGAGGCAGGCUUCGGUGGCGCGAUAGCGCCAACGUCCUCAUCCUCCAAUGAAUCCCACCACAUGAUGAUGCCUGAAGAGCCUUGGAUUUUUG [A2C C12U G42U A84U C94A U129A] for me? -3.55

Quick one: polymerase ribozyme fitness (log ratio) of GACCAAUCUGCCCUCAGAGCUCGAGAACAUCUUCGGAUGCAGAGGAGGCAGGCUUCGGUGGCGCGAUAGCGCCAACGUCCUCAACCUCCAAUGCGUCCCACCAAAUGACGAUGUCUGAAGAGCAUUGGUUUUUUG [A95G C104A U109C C114U C124A] ? -2.73

# lookup: polymerase ribozyme fitness (log ratio) of GACCAAUCUGCCCUCAGAGCUCGAGAACAUCUUCGGAUGCAGACGAGGCAGGCUUCGGUGGCGCGAUAGCGCCAACGUCCUCAUCCUCCAAUGCAUCCCACCACAUGAUGAUGCCUGAAGAGCCUUGGUUUUUUG [G44C A84U] -1.11
